Recorded Percent displacement of L-[3H]Glu for the following compounds
System: metabotropic glutamate receptors
Test: displacement of 1S,3R-ACPD-sensitive [3H]glutamate binding to rat forebrain crude membranes
Details: 100 μM, mixture of enantiomers unless otherwise noted
Give the value, in units of %, as a plain number.

These recorded examples may help you get a feel for the data.
# Compound, Percent displacement of L-[3H]Glu, %
measured = [
    ("COc1ccc(OC(C[C@H](N)C(=O)O)C(=O)O)cc1 (stereo partly shown)", 82.3),
    ("Cc1ccc(OC(C[C@H](N)C(=O)O)C(=O)O)cc1 (stereo partly shown)", 82.4),
    ("N[C@@H](CC(Oc1ccc(Cc2ccccc2)cc1)C(=O)O)C(=O)O (stereo partly shown)", 93.8),
    ("N[C@@H](CC(Oc1cccc2ccccc12)C(=O)O)C(=O)O (stereo partly shown)", 98.5),
    ("N[C@@H](CC(Oc1ccc2c(c1)OCO2)C(=O)O)C(=O)O (stereo partly shown)", 89.0),
    ("N[C@@H](C[C@H](Oc1ccc2oc3ccccc3c2c1)C(=O)O)C(=O)O", 107.1),
]

// below: Percent displacement of L-[3H]Glu requested for another compound
Q: Dear colleague, I am looking for the recorded Percent displacement of L-[3H]Glu of the following compound: N[C@@H](C[C@H](Oc1ccc2ccccc2c1)C(=O)O)C(=O)O
Result: 101.5
